# Target Or Test System: human V2 receptor (Homo sapiens, UniProt P30518)
# Sequence (P30518 whole entry): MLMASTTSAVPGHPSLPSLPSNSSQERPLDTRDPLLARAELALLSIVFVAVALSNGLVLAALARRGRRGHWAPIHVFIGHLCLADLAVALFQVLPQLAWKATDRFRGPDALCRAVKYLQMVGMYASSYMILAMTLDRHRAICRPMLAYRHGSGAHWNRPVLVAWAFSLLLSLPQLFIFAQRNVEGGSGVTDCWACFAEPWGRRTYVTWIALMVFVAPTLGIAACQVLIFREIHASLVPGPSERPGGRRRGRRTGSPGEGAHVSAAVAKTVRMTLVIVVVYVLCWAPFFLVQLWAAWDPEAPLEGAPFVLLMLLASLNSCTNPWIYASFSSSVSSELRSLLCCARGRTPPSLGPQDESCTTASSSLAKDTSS
# Assay Notes: Cellular in vitro assay for vasopressin receptor activity, V2 cell line (CRE-luciferase)
# Details: CHO cell line transfected with human V2 receptor; agonist [Arg8]-vasopressin at EC50 concentration, 3 hours; read-out: IC50hV2
pIC50: −log10 of the molar value.
Param threshold (8) applies to pIC50; output TRUE when value >= threshold, FALSE when value < threshold.

These solved cases illustrate the format of a correct answer.
CC(F)c1nc(Cn2nc(-c3ccc(Cl)cc3)n(C[C@H](O)C(F)(F)F)c2=O)nn1-c1cnccc1Cl (mixture of isomers) [Example 4]    FALSE
CC(F)(F)c1nc(Cn2nc(-c3ccc(Cl)cc3)n(C[C@H](O)C(F)(F)F)c2=O)nn1-c1ccccc1OC(F)(F)F    FALSE
CC(F)c1nc(Cn2nc(-c3ccc(Cl)cc3)n(C[C@H](O)C(F)(F)F)c2=O)nn1-c1ccccc1C#N (mixture of isomers) [Example 38]    FALSE

Now look at this one.
Entry "CCc1ccccc1-n1nc(Cn2nc(-c3ccc(Cl)cc3)n(C[C@H](O)C(F)(F)F)c2=O)nc1C(C)(F)F" : is its pIC50 no less than 8?
TRUE

---

# Target Or Test System: human V1a receptor (Homo sapiens, UniProt P37288)
# Sequence (P37288 whole entry): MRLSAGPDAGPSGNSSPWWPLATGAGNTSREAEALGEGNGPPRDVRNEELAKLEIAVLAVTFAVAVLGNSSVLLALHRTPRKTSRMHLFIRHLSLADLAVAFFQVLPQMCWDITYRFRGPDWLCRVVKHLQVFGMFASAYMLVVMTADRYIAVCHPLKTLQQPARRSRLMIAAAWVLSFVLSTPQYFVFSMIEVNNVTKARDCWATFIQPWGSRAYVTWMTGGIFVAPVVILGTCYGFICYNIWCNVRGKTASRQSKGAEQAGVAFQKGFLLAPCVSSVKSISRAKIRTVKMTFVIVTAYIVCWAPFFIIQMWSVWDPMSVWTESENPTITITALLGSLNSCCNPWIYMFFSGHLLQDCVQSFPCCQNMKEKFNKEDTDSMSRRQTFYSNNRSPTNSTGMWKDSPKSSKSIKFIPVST
# Assay Notes: Cellular in vitro assay for vasopressin receptor activity, V1a cell line (aequorin luminescence)
# Details: CHO cell line transfected with human V1a receptor; agonist [Arg8]-vasopressin at EC50 concentration; read-out: IC50hV1a
Listing: IC50 of selected molecules
Give the value in nM but do not write nM after it.

Sample answers from the record:
CC(F)c1nc(Cn2nc(-c3ccc(Cl)cc3)n(C[C@H](O)C(F)(F)F)c2=O)nn1-c1ccccc1OC(F)F (single isomer, unassigned) [Example 32]    2.4
CCOc1ccccc1-n1nc(Cn2nc(-c3ccc(Cl)cc3)n(C[C@H](O)C(F)(F)F)c2=O)nc1C(C)F (mixture of isomers)    1.9
CC(F)c1nc(Cn2nc(-c3ccc(Cl)cc3)n(C[C@H](O)C(F)(F)F)c2=O)nn1-c1ccccc1OC(F)(F)F (single isomer, unassigned) [Example 26]    3
CC(F)(F)c1nc(Cn2nc(-c3ccc(Cl)cc3)n(C[C@H](O)C(F)(F)F)c2=O)nn1-c1cccc(Cl)c1    60

"O=c1n(Cc2nc(C(F)F)n(-c3cccc(F)c3)n2)nc(-c2ccc(Cl)cc2)n1C[C@H](O)C(F)(F)F" has a reported IC50 of 10.8

The recorded IC50 for "CCOc1ccccc1-n1nc(Cn2nc(-c3ccc(Cl)cc3)n(C[C@H](O)C(F)(F)F)c2=O)nc1C(C)(F)F" is 1.8

response.value for CCc1ccccc1-n1nc(Cn2nc(-c3ccc(Cl)cc3)n(C[C@H](O)C(F)(F)F)c2=O)nc1C(C)F (single isomer, unassigned) [Example 29] (field: IC50) = 0.91

---

# Target Or Test System: human V1a receptor (Homo sapiens)
# Assay Notes: Cellular in vitro assay for vasopressin receptor activity, V1a cell line (aequorin luminescence)
# Details: CHO cell line transfected with human V1a receptor; agonist [Arg8]-vasopressin at EC50 concentration; read-out: IC50hV1a
Consider the following compounds and their measured pIC50 readings.
Quick note: pIC50 means taking -log10 of the concentration in moles per liter.

Some entries whose results are on file:
O=c1n(Cc2nc(C(F)F)n(-c3ccccc3Cl)n2)nc(-c2ccc(Cl)cc2)n1C[C@H](O)C(F)(F)F    8.83
CC(F)c1nc(Cn2nc(-c3ccc(Cl)cc3)n(C[C@H](O)C(F)(F)F)c2=O)nn1-c1c(F)cccc1F (mixture of isomers)    8.66
CC(C)c1ccccc1-n1nc(Cn2nc(-c3ccc(Cl)cc3)n(C[C@H](O)C(F)(F)F)c2=O)nc1C(C)(F)F    7.51
CC(F)c1nc(Cn2nc(-c3ccc(Cl)cc3)n(C[C@H](O)C(F)(F)F)c2=O)nn1-c1cnccc1C(F)(F)F (single isomer, unassigned) [Example 9]    9.00

// next entry
For record CC(F)c1nc(Cn2nc(-c3ccc(Cl)cc3)n(C[C@H](O)C(F)(F)F)c2=O)nn1-c1ccccc1Cl (single isomer, unassigned) [Example 2] the listed pIC50 is 9.44

Entry source: patent US10525041B2
